assay: Cytotoxicity, summary over the cell line panel; format: cell-based; settings: human, HeLa, SK-MEL, KB and BT-549 cells; read-out: Cytotoxicity IC50 values, span over cell lines
endpoint.name: IC50 at 48 h

According to the records, this compound `C=C(C)[C@H]1CC[C@H](C)C[C@@H]1c1c(O)cc(/C=C/c2ccccc2O)cc1O` displays IC50 at 48 h of 32 to 38 µg/mL

====

# Ki values compiled below
Molecular target: CB2 receptor (Homo sapiens, UniProt P34972)
Construct: expressed in transfected cells; host or cells: HEK293 (ATCC), stably transfected; membranes
Sequence (P34972 whole entry): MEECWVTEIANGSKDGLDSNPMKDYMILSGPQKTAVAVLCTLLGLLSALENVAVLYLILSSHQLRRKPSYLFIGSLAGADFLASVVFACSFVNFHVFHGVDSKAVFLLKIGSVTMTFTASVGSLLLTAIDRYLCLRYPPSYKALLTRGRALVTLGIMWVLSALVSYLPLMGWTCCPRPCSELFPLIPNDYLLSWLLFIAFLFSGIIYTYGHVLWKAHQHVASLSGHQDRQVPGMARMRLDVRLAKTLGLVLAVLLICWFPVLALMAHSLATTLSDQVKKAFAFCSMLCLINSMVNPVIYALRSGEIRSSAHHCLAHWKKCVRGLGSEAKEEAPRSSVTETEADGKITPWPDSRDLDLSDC
Assay: Competitive radioligand binding assay, CB2
Details: * tested up to solubility limit; conc. at 33.3 μM and above precipitated; read-out: CB2 Ki ± SEM
Description: HEK293 cells stably transfected with δ, κ and μ opioid subtypes were a generous gift from Roth Laboratories (University of North Carolina at Chapel Hill, N.C., USA). CB and opioid cells were maintained as previously described. […] Cannabinoid and opioid competitive radioligand binding assays were performed as previously described. […] The percent displacement was calculated to represent the ability of the samples to displace the radioligand binding for a given cannabinoid or opioid receptor subtype. […]

molecule: C[C@@H]1C[C@@H]2c3c(O)cc(-c4cc5ccccc5o4)cc3OC(C)(C)[C@H]2C[C@H]1O [compound 4, machaeriol D]
Ki: > 1300 nM

Lab entry: CB2 receptor (Homo sapiens, UniProt P34972) assay, molecule C=C(C)[C@H]1CC[C@H](C)C[C@@H]1c1c(O)cc(/C=C/c2ccccc2O)cc1O [compound 6, machaeridiol B] , Ki = > 2180 nM

Lab entry: CB2 receptor (Homo sapiens, UniProt P34972) assay, molecule C=C(C)[C@H]1CC[C@H](C)C[C@@H]1c1c(O)cc(-c2cc3ccccc3o2)cc1O [compound 7, machaeridiol C] , Ki = > 1110 nM

Lab entry: CB2 receptor (Homo sapiens, UniProt P34972) assay, molecule C=C(C)[C@H]1CC[C@H](C)C[C@@H]1c1c(O)cc(/C=C/c2ccccc2)cc1O [compound 5, machaeridiol A] , Ki = > 1770 nM

====

assay: Cytotoxicity, Neutral Red, LLC-PK1; format: cell-based; settings: pig, LLC-PK1 kidney epithelial cells, Na = not active up to 50 µg/mL
endpoint.name: IC50 at 48 h

compound: C=C(C)[C@H]1CC[C@H](C)C[C@@H]1c1c(O)cc(/C=C/c2ccccc2O)cc1O [compound 6, machaeridiol B]
test.result: 37 µg/mL

// below: IC50 at 48 h requested for another compound
According to the records, this compound COc1cccc2c1C(=O)c1c(O)c3c(c(O)c1C2=O)C[C@@](O)(C(=O)CO)C[C@@H]3O[C@H]1C[C@H](N)[C@H](O)[C@H](C)O1 [Doxorubicin, reference compound] displays IC50 at 48 h of 1.1 µg/mL

====

# IC50 at 48 h values compiled below
Test: Cytotoxicity, Neutral Red, SK-OV-3
Format: cell-based
Details: human, SK-OV-3 ovary carcinoma cells, Na = not active up to 50 µg/mL
Description: In vitro cytotoxic activity was determined against five human cancer cell lines—malignant melanoma (SK-MEL), epidermal carcinoma oral (KB), ductal carcinoma breast (BT-549), ovary carcinoma (SKOV-3) and cervical (HeLa) cancer cells—and two non-cancerous kidney cell lines (LLC-PK1 and Vero). […] At the end of the incubation, the cell viability was determined using Neutral Red dye according to a modification of the procedure used by Borenfreund et al.. […]

molecule: C=C(C)[C@H]1CC[C@H](C)C[C@@H]1c1c(O)cc(/C=C/c2ccccc2O)cc1O
IC50 at 48 h: > 50 µg/mL

molecule: COc1cccc2c1C(=O)c1c(O)c3c(c(O)c1C2=O)C[C@@](O)(C(=O)CO)C[C@@H]3O[C@H]1C[C@H](N)[C@H](O)[C@H](C)O1 [Doxorubicin, reference compound]
IC50 at 48 h: 2 µg/mL

// below: IC50 at 48 h requested for another molecule
According to the records, this molecule `C[C@H]1CC[C@H]2[C@H](C1)c1c(O)cc(/C=C/c3ccccc3O)cc1OC2(C)C` displays IC50 at 48 h of > 50 µg/mL
